Where do these numbers come from? They come from patent US12581252B2.

Target: H1047R PIK3CA enzyme (Homo sapiens, UniProt P42336, H1047R)
Sequence (P42336 whole entry H1047R): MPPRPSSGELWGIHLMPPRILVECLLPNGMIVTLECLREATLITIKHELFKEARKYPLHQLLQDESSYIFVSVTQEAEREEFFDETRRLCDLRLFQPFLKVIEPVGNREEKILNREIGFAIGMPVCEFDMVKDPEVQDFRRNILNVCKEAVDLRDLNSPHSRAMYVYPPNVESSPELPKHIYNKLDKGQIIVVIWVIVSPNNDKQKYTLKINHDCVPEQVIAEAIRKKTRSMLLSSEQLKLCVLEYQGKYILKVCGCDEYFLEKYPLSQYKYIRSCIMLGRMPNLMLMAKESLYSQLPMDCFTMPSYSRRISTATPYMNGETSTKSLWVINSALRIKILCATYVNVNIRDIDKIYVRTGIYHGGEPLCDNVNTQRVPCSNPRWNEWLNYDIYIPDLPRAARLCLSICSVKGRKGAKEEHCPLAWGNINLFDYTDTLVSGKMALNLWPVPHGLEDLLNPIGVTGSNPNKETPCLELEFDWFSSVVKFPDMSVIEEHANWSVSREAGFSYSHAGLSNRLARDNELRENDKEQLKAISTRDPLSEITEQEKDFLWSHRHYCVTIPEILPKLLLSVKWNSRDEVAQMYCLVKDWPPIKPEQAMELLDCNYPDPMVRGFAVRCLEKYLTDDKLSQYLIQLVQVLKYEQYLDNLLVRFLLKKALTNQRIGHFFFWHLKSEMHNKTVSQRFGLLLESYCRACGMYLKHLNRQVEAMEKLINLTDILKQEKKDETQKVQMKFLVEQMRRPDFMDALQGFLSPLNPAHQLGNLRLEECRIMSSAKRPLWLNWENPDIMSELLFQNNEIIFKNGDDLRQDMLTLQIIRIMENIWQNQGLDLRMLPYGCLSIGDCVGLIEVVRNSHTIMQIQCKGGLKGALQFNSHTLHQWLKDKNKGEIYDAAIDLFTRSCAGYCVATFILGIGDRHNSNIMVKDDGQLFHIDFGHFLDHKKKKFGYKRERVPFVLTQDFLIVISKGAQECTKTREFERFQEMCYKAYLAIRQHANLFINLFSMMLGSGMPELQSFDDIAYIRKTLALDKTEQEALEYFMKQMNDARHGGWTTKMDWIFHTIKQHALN
Sequence (P27986 whole entry partner): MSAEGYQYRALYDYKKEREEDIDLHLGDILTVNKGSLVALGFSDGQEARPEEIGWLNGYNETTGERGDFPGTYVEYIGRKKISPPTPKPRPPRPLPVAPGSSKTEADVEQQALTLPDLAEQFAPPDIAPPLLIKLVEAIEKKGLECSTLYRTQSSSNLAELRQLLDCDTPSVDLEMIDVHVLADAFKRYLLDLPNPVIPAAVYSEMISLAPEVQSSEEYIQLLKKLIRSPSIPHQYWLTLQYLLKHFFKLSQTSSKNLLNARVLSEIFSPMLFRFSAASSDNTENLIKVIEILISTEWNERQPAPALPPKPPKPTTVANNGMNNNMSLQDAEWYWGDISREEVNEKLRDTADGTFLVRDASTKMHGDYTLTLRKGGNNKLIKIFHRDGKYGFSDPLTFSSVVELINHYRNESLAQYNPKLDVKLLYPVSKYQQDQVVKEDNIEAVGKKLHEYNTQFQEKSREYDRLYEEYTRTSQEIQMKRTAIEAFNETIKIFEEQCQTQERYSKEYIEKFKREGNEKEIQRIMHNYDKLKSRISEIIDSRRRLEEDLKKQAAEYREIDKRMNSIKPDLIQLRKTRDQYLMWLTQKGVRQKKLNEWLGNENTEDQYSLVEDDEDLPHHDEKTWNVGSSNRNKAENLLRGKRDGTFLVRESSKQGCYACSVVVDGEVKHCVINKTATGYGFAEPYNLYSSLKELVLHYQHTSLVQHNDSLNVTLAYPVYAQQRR
Assay: ADP-Glo Biochemical PIK3CA Kinase Assay
Protocol: Compounds to be assayed were plated in 16 doses of 1:2 serial dilutions (20 nL volume each well) on a 1536-well plate, and the plate warmed to room temperature. […] To the well was added 1 μL of 200 μM ATP and 20 μM of diC8-PIP2 in Substrate Assay Buffer (50 mM HEPES pH7.4, 50 mM NaCl, 5 mM DTT and 0.03% CHAPS) to start the reaction, and the plate was shaken for 10 seconds, then spun briefly at 1500 rpm, and then incubated for 60 minutes at room temperature. […]
pIC50: −log10 of the molar value.
Readout Type: pIC50

Return the recorded pIC50 value; entry: Cn1cc(C(=O)Nc2cc(NC(=O)c3cc(F)cc(C(F)(F)F)c3)c3c(c2)C(=O)NC3c2cc(F)ccc2Cl)cn1 (stereo not drawn)
≥ 7.00

Specify pIC50 for Cc1ccc(C(=O)Nc2cc(Br)cc3c2C(c2cc(F)ccc2Cl)NC3=O)cc1C(F)(F)F (stereo not drawn) and stop.
6.30 to 7.00

Give the reported value of pIC50 for this record: O=C(Nc1ccc(F)cc1C(F)(F)F)Nc1cc(Br)cc2c1C(c1cc(F)ccc1Cl)NC2=O (stereo not drawn)
6.30 to 7.00

State its pIC50: O=C1N[C@H](c2cc(F)ccc2Cl)c2c(NC(=O)N3C[C@@](O)(C(F)(F)F)c4cc(F)ccc43)cc(N3CCCC3=O)cc21 (single isomer, unassigned)
≥ 7.00

Read the entry Cc1nn(C(=O)Nc2cccc3c2C(c2cc(F)ccc2Cl)NC3=O)c2ccccc12 (stereo not drawn) and write its reported pIC50.
6.00 to 6.30

For O=C1N[C@@H](c2cc(F)ccc2Cl)c2c(NC(=O)N3C[C@@H](O)c4ccc(F)cc43)cccc21 (stereo in doubt) , write its pIC50.
≥ 7.00

###

Exercise: for every item that follows, state its recorded IC50.
molecular target: H1047R PIK3CA enzyme (Homo sapiens, UniProt P42336, H1047R); assay: ADP-Glo Biochemical PIK3CA Kinase Assay

Fill in: IC50 on H1047R PIK3CA enzyme (Homo sapiens, UniProt P42336, H1047R), entry O=C1NC(c2cc(F)ccc2Cl)c2c(Nc3cccc4ccccc34)cc(Br)cc21 (stereo not shown)
1000 to 10000 nM

Please tell me the measured IC50 for O=C(O)c1cc(F)cc(C(=O)Nc2cc(Br)cc3c2C(c2cc(F)ccc2Cl)NC3=O)c1 (stereo not shown) ; system: H1047R PIK3CA enzyme (Homo sapiens, UniProt P42336, H1047R).
10000 to 100000 nM

Report IC50 from H1047R PIK3CA enzyme (Homo sapiens, UniProt P42336, H1047R) testing of C[C@@]1(C(=O)Nc2cc(Br)cc3c2[C@@H](c2cc(F)ccc2Cl)NC3=O)CCC[C@H](C(F)(F)F)C1 (single isomer, unassigned) [Compound I-2260]
500 to 1000 nM

Recall the reported IC50 of O=C(Nc1cc(-c2ccnn2C[C@H]2CCOC2)cc2c1C(c1cc(F)ccc1Cl)NC2=O)c1cc(F)cc(C(F)(F)F)c1 (single isomer, unassigned) when tested on H1047R PIK3CA enzyme (Homo sapiens, UniProt P42336, H1047R).
≤ 100 nM

Param request: IC50 | system H1047R PIK3CA enzyme (Homo sapiens, UniProt P42336, H1047R) | item "O=C(Nc1cc(-c2cn[nH]c2)cc2c1[C@H](c1cc(F)ccc1Cl)NC2=O)c1cc(F)cc(C(F)(F)F)c1"
≤ 100 nM

Consider the compound O=C(Nc1cc(Nc2ccno2)cc2c1C(c1cc(F)ccc1Cl)NC2=O)c1cc(F)cc(C(F)(F)F)c1 (stereo not shown) tested on H1047R PIK3CA enzyme (Homo sapiens, UniProt P42336, H1047R); state its IC50.
≤ 100 nM

Specify IC50 for C[C@@H](O)c1cc(-c2ccc3ncnn3c2)cc2c1[C@H](c1cc(F)ccc1Cl)NC2=O (single isomer, unassigned) , system H1047R PIK3CA enzyme (Homo sapiens, UniProt P42336, H1047R).
10000 to 100000 nM

Quote IC50 with test system H1047R PIK3CA enzyme (Homo sapiens, UniProt P42336, H1047R) for O=C1NC(c2cc(F)ccc2Cl)c2c(Nc3nnc4n3CCCC4)cc(-c3ccc4ncnn4c3)cc21 (stereo not shown)
10000 to 100000 nM

Give H1047R PIK3CA enzyme (Homo sapiens, UniProt P42336, H1047R) IC50 for the following compound: O=C(Nc1cc(-c2ccc(=O)n(C3CC3)c2)cc2c1C(c1cc(F)ccc1Cl)NC2=O)c1cc(F)cc(C(F)(F)F)c1 (stereo not shown)
≤ 100 nM

Under H1047R PIK3CA enzyme (Homo sapiens, UniProt P42336, H1047R): report IC50 of "Cc1cc2ncnn2cc1-c1cc(NC(=O)c2cc(F)cc(C(F)(F)F)c2)c2c(c1)C(=O)N[C@@H]2c1cc(F)ccc1Cl" .
1000 to 10000 nM

Determine reported IC50 for O=C1NC(c2cc(F)ccc2Cl)c2c(Nc3ncnc4ccccc34)cc(Br)cc21 (stereo not shown) ; test system: H1047R PIK3CA enzyme (Homo sapiens, UniProt P42336, H1047R).
10000 to 100000 nM

Look up and report measured IC50 (H1047R PIK3CA enzyme (Homo sapiens, UniProt P42336, H1047R)) for the following compound: Cn1cc(-c2cc(NC(=O)c3cc(F)cc(C(F)(F)F)c3)c3c(c2)C(=O)NC3c2cc(F)ccc2C(F)F)cn1 (stereo not shown)
≤ 100 nM

Using H1047R PIK3CA enzyme (Homo sapiens, UniProt P42336, H1047R) as the test system, report measured IC50 of Cc1ccccc1C1NC(=O)c2cccc(NC(=O)c3nsc4ccc(Br)cc34)c21 (stereo not shown) .
500 to 1000 nM

###

target: H1047R PIK3CA enzyme (Homo sapiens, UniProt P42336, H1047R); assay: ADP-Glo Biochemical PIK3CA Kinase Assay
Readout Type: IC50

// fetch IC50 given entry O=C(O)c1cc(NC(=O)c2cc(F)cc(C(F)(F)F)c2)c2c(c1)C(=O)NC2c1cc(F)ccc1Cl (centres unmarked)
≤ 0.1 µM

Provide one value: measured IC50 of O=C(Nc1cccc2c1C(c1cc(F)ccc1Cl)NC2=O)c1ccccc1 (centres unmarked)
10 to 100 µM

Answer with the recorded IC50 of CC(=O)N[C@@H]1CCC[C@H](C(=O)Nc2cc(-c3ccc4ncnn4c3)cc3c2C(c2cc(F)ccc2Cl)NC3=O)C1 (mixture of isomers) only.
10 to 100 µM

Please report the measured IC50 for O=C(Nc1cc(Br)cc2c1C(c1cc(F)cc(F)c1Cl)NC2=O)c1cc(F)cc(C(F)(F)F)c1 (centres unmarked)
≤ 0.1 µM

State, in one line, measured IC50 of O=C(Nc1cc(-n2ccnc2)cc2c1[C@H](c1cc(F)ccc1Cl)NC2=O)c1cc(F)cc(C(F)(F)F)c1 (stereo in doubt)
≤ 0.1 µM

Given the compound O=C(Nc1cc(-c2ccc3ncnn3c2)c(-c2ccc3ncnn3c2)c2c1C(c1cc(F)ccc1Cl)NC2=O)c1cc(F)cc(C(F)(F)F)c1 (centres unmarked) , write its reported IC50.
0.1 to 0.5 µM

Give reported IC50 value for O=C(Nc1cccc2c1C(c1cc(F)ccc1Cl)NC2=O)c1cc(B(O)O)cc(C(F)(F)F)c1 (centres unmarked)
1 to 10 µM

Complete the entry with IC50 for O=C(Nc1cc(-c2ccnc3[nH]ccc23)cc2c1C(c1cc(F)ccc1Cl)NC2=O)c1cc(F)cc(C(F)(F)F)c1 (centres unmarked)
≤ 0.1 µM

Look up and report measured IC50 for this entry: O=C1NCc2c(NC(=O)N3CCCC[C@@H]3Cc3ccccc3)cccc21 (stereo in doubt)
10 to 100 µM

Give a short answer stating reported IC50 for "CC(C)(O)c1cc(NC(=O)N2CCc3ccccc32)c2c(c1)C(=O)N[C@@H]2c1cc(F)ccc1Cl" .
10 to 100 µM

Find the measured IC50 of Cc1ccccc1C1NC(=O)c2cc(Br)cc(NC(=O)c3cc(F)cc(C4CC4)c3)c21 (centres unmarked) and report it.
1 to 10 µM

In one line, give reported IC50 of the entry O=C1N[C@@H](c2cc(F)ccc2Cl)c2c(NC(=O)[C@H]3CC(C(F)(F)F)C[C@@H](O)C3)cc(Br)cc21 (single isomer, unassigned) [Compound I-2275] .
10 to 100 µM

Identify measured IC50 corresponding to Cc1ccc(-c2cc(NC(=O)c3cc(F)cc(Cl)c3)c3c(n2)C(=O)NC3c2cc(F)ccc2Cl)cn1 (centres unmarked)
0.1 to 0.5 µM

Fill in IC50 for record O=C(Nc1cccc2c1C(c1cc(F)ccc1Cl)NC2=O)c1csc2c1CCNC2 (centres unmarked)
10 to 100 µM

Using known records, supply IC50 for O=C1NC(c2cc(F)ccc2Cl)c2c(NC3CNCc4ccccc43)cc(-c3ccc4ncnn4c3)cc21 (centres unmarked)
1 to 10 µM

Hello, please tell me recorded IC50 for this one: N#CC1CN(S(=O)(=O)Cc2cc(NC(=O)c3cc(F)cc(C(F)(F)F)c3)c3c(c2)C(=O)NC3c2cc(F)ccc2Cl)C1 (centres unmarked)
≤ 0.1 µM

Please report IC50 for the following compound: "Cc1ccccc1[C@H]1NC(=O)c2cc(C(=O)NCC(F)F)cc(NC(=O)c3nsc4ccccc34)c21"
0.1 to 0.5 µM

// fetch IC50 given entry O=C(Nc1cc(NC2=N[C@H](C(F)(F)F)CO2)cc2c1[C@H](c1cc(F)ccc1Cl)NC2=O)c1cc(F)cc(C(F)(F)F)c1 (single isomer, unassigned)
≤ 0.1 µM

Supply measured IC50 of "O=C(Nc1cc(-c2ccc3ncccc3c2)cc2c1[C@@H](c1cc(F)ccc1Cl)NC2=O)c1cc(F)cc(C(F)(F)F)c1" in your reply.
1 to 10 µM

Please report IC50 for the following compound: O=C(Nc1cc(-c2ccn3ncnc3c2)cc2c1[C@@H](c1cc(F)ccc1Cl)NC2=O)c1cc(F)cc(C(F)(F)F)c1 (stereo in doubt)
1 to 10 µM

Consider the compound CNC(=O)c1ncc(-c2cc(NC(=O)c3cc(F)cc(C(F)(F)F)c3)c3c(c2)C(=O)NC3c2cc(F)ccc2Cl)cn1 (centres unmarked) and give its recorded IC50.
0.1 to 0.5 µM

Respond only with IC50 recorded for CNc1cc(NC(=O)N2C[C@@](O)(C(F)(F)F)c3cc(F)ccc32)c2c(n1)C(=O)N[C@@H]2c1cc(F)ccc1Cl (single isomer, unassigned)
1 to 10 µM

Quickly give me recorded IC50 for O=C1NC(c2cc(F)ccc2Cl)c2c(NC(=O)c3cc(F)cc4cc[nH]c34)cccc21 (centres unmarked)
≤ 0.1 µM

Identify IC50 associated with the compound "C[C@H](CCC(F)(F)F)C(=O)Nc1cccc2c1[C@@H](c1cc(F)ccc1Cl)NC2=O"
10 to 100 µM

Note IC50 for the compound shown: O=C1NC(c2cc(F)ccc2Cl)c2c(NC(=O)N3CCc4cc(OC(F)(F)F)ccc43)cccc21 (centres unmarked)
1 to 10 µM

Quick one: give measured IC50 for Cc1ncc(-c2cc(NC(=O)c3cc(F)cc(Cl)c3)c3c(c2)C(=O)NC3c2cc(F)ccc2Cl)cn1 (centres unmarked)
≤ 0.1 µM
